test system: MDA-MB-231 human breast cancer cells; assay: MTT cell proliferation assay, MDA-MB-231; format: cell-based; conditions: MDA-MB-231 cells, SEM < 10%, read-out: GI50s MDA-MB-231
pIC50: −log10 of the molar value.
Endpoint name: pIC50

The cases that follow already have their pIC50 on record.
{"Molecule": "CC1=C(/C=C/C(C)=C/C=C/C(C)=C\\C(=O)NCc2ccc(F)cc2)C(C)(C)CCC1n1ccnc1 (stereo not shown) [Compound 23]", "pIC50": 5.85}
{"Molecule": "CC1=C(/C=C/C(C)=C/C=C/C(C)=C/C(=O)Nc2ccc(O)cc2)C(C)(C)CCC1 [Compound 4-HPR, N-(4-hydroxyphenyl) retinamide, reference compound]", "pIC50": 4.96}
{"Molecule": "CC1=C(/C=C/C(C)=C/C=C/C(C)=C\\C(=O)Nc2ccccc2)C(C)(C)CC=C1c1cccnc1 [Compound 35]", "pIC50": 4.60}
{"Molecule": "CC1=C(/C=C/C(C)=C/C=C/C(C)=C\\C(=O)Nc2ccc(F)cc2)C(C)(C)CCC1n1ccnc1 (stereo not shown) [Compound 19]", "pIC50": 5.31}

1. CC1=C(/C=C/C(C)=C/C=C/C(C)=C\C(=O)Nc2ccccc2O)C(C)(C)CCC1n1ccnc1 (stereo not shown) [Compound 18]
2. CC1=C(/C=C/C(C)=C/C=C/C(C)=C\C(=O)NCCc2ccc(O)cc2)C(C)(C)CCC1n1ccnc1 (stereo not shown) [Compound 25]
Larger number for pIC50: 1 , or 2 ? Could you answer with the label of the item you picked? 2
(2: 5.54, 1: 5.33)
